assay: gradient 5% acetonitrile 3 min, to 50% in 2 min, to 85% in 15 min, held 3 min, 100 µL/min; conditions: column: Zorbax Extend-C18 2.1 x 50 mm; eluents: water / acetonitrile, 0.1% formic acid
assay_endpoint: RP-LC retention time (s)

Check out these entries, answers already filled in.
Value lookup for RP-LC retention time; key = COC(=O)c1cc(C)nc2c1c(=O)n(Cc1cccc(C#N)c1)c(=O)n2C
952

Value lookup for RP-LC retention time; key = CC1=C(c2ccc(C)c(C)c2)S(=O)(=O)N=C1N1CCCN(C(=O)C(C)(C)C)CC1
903

Value lookup for RP-LC retention time; key = O=c1c(=O)n(-c2cccc(Cl)c2)ccn1Cc1nc(-c2cccc(F)c2)no1
895

Value lookup for RP-LC retention time; key = Cc1cc(N2CCN(S(=O)(=O)c3ccccc3F)CC2)nc(NC2CCCCC2)n1
796

Value lookup for RP-LC retention time; key = O=C(C1CCCN(c2ccc(N3CCOCC3)nn2)C1)N1CCN(c2ccccc2)CC1 (centres undefined)
635

Value lookup for RP-LC retention time; key = CC(C)CCC(=O)N1CCC2(CC1)CC(O)CCO2 (centres undefined)
644

[I] C[C@@H]1C(=O)O[C@H]2C[C@@]34[C@H]5C[C@@H](C(C)(C)C)[C@]36[C@@H](OC(=O)[C@@H]6O)O[C@@]4(C(=O)O5)[C@]21O
[II] Cn1c(=O)oc2cc(-c3noc(-c4cccc(Br)c4)n3)ccc21
Which of the two items, I and II , has the greater recorded RP-LC retention time? Output the label that corresponds to your choice.
II

###

assay: gradient 5% acetonitrile 3 min, to 50% in 2 min, to 85% in 15 min, held 3 min, 100 µL/min; settings: column: Zorbax Extend-C18 2.1 x 50 mm; eluents: water / acetonitrile, 0.1% formic acid
assay_endpoint: RP-LC retention time (s)

Check out these entries, answers already filled in.
Value lookup for RP-LC retention time; key = COc1ccccc1-c1noc(C2CCCN2C(=O)Nc2ccc(F)c(Cl)c2)n1 (centres undefined)
942

Value lookup for RP-LC retention time; key = CCC(C)NC(=O)N1C[C@@H]2CN(S(=O)(=O)c3ccc(F)cc3)C[C@H](C1)O2 (some centres undefined)
731

Value lookup for RP-LC retention time; key = O=c1c2cc3c(cc2nc(SCc2nc(-c4cccc(F)c4)no2)n1Cc1ccccc1)OCO3
1250

Value lookup for RP-LC retention time; key = Cc1cc(C)cc(NS(=O)(=O)c2cc3c(s2)CCN(C(=O)C2CCC2)C3)c1
962

Value lookup for RP-LC retention time; key = Cc1ccc(NC(=O)N(C)Cc2ccoc2)cc1
647

Value lookup for RP-LC retention time; key = Cc1nc(Cn2cccc2C(=O)Nc2cccc(C)c2C)no1
821

Value lookup for RP-LC retention time; key = Cc1nn(C)c(C)c1CNC(=O)C1CC(=O)N(c2n[nH]c3cccc(F)c23)C1 (centres undefined)
594

Value lookup for RP-LC retention time; key = COc1ccc(N2C=C(C(=O)N3CCCC3)S(=O)(=O)c3ccc(F)cc32)cc1OC
758

Value lookup for RP-LC retention time; key = O=C1CC(C(=O)N2CCN(Cc3ccc4c(c3)OCO4)CC2)CN1CCc1c[nH]c2ccc(F)cc12 (centres undefined)
649

Value lookup for RP-LC retention time; key = CC(C)NC(=O)C1CCC(=O)N1C1CCN(C(=O)C2CCCCC2)CC1 (centres undefined)
591

[A] Cc1ccc(C(=O)Nc2ccc3c(N4CCCCC4)ncnc3c2)s1
[B] CCN1C(=O)COc2ccc(-c3noc(-c4cccc(F)c4)n3)cc21
Which of the two items, A and B , has the greater recorded RP-LC retention time? Output the label that corresponds to your choice.
B
(B: 1170 s, A: 695 s)

[P] COc1cc(CCC(=O)O)on1
[Q] Cc1cccc(NS(=O)(=O)c2ccc3c(c2)C(=O)N(C)c2ncccc2O3)c1C
Could you determine which record has the numerically smaller RP-LC retention time? Candidates: P and Q Output the label that corresponds to your choice.
P
(P: 658 s, Q: 970 s)

###

test: gradient 5% acetonitrile 3 min, to 50% in 2 min, to 85% in 15 min, held 3 min, 100 µL/min; settings: column: Zorbax Extend-C18 2.1 x 50 mm; eluents: water / acetonitrile, 0.1% formic acid
assay_endpoint: RP-LC retention time (s)

Value lookup for RP-LC retention time; key = O=C(Cc1csc2nc(-c3cccc(Br)c3)cn12)Nc1ccccc1F
958

Value lookup for RP-LC retention time; key = CN1C(=O)c2ccccc2Oc2ccc(C(=O)NCc3ccc(F)cc3)cc21
868

Value lookup for RP-LC retention time; key = CC(C)CCNC(=O)CN1C(=O)CCCc2cc(S(=O)(=O)N3CCC(C)CC3)ccc21
938

Value lookup for RP-LC retention time; key = CN(CCNC(=O)c1sc2ncccc2c1-n1cccc1)Cc1ccccc1
666

Value lookup for RP-LC retention time; key = Clc1ccc(-c2nc(NC3CCCCCC3)c3ccccc3n2)cc1
1030

Value lookup for RP-LC retention time; key = CC(C)(C)CNC(=O)c1cc(=O)[nH]c2ccccc12
869

Value lookup for RP-LC retention time; key = CCCN1CCN(CCNC(=O)C2CCCN(c3ncc(-c4ccc(F)cc4)cn3)C2)CC1 (centres undefined)
641

Value lookup for RP-LC retention time; key = CC(=O)N1CCc2cc(N3CC(C(=O)NCc4ccc(F)cc4F)CC3=O)ccc21 (centres undefined)
692

Value lookup for RP-LC retention time; key = CCCN(CCC)C(=O)Cn1nc(-c2nc(-c3ccc(C)cc3)no2)c2ccccc21
859

###

assay: gradient 5% acetonitrile 3 min, to 50% in 2 min, to 85% in 15 min, held 3 min, 100 µL/min; conditions: column: Zorbax Extend-C18 2.1 x 50 mm; eluents: water / acetonitrile, 0.1% formic acid
assay_endpoint: RP-LC retention time (s)

Check out these entries, answers already filled in.
Value lookup for RP-LC retention time; key = Cc1ccc(NC(=O)Cn2cnc3nc(N4CCCC(C(=O)NC(C)C)C4)sc3c2=O)cc1C (stereo not given)
730

Value lookup for RP-LC retention time; key = CC(C)OC(=O)Cn1nc(-c2nc(-c3cccc(Cl)c3)no2)ccc1=O
1100

Value lookup for RP-LC retention time; key = CCN1CCN(C(=O)C2CCN(S(=O)(=O)c3ccc4c(c3)sc(=O)n4C(C)C)CC2)CC1
650

Value lookup for RP-LC retention time; key = Cc1ccc(Nc2c(-c3ccc(N4CCOCC4)cc3)nc3cc(C)ccn23)cc1
769

Value lookup for RP-LC retention time; key = CCOC(=O)c1c(C)[nH]c(CCC(=O)NC2CCCC2)c1C
780

Value lookup for RP-LC retention time; key = O=C(NCc1ccccc1)c1cc2sccc2n1Cc1ccc(F)cc1
1080

[P] CCN1c2cc(F)ccc2C(=O)NC12CCN(C(=O)c1ccc(OC)cc1OC)CC2
[Q] O=c1c2cc(-c3cccs3)nn2cnn1Cc1nc(-c2ccc(OC(F)(F)F)cc2)no1
Which of the two items, P and Q , has the greater recorded RP-LC retention time? Output the label that corresponds to your choice.
Q

###

assay: gradient 5% acetonitrile 3 min, to 50% in 2 min, to 85% in 15 min, held 3 min, 100 µL/min; conditions: column: Zorbax Extend-C18 2.1 x 50 mm; eluents: water / acetonitrile, 0.1% formic acid
assay_endpoint: RP-LC retention time (s)

[1] CC(C)S(=O)(=O)N[C@H]1CCOC[C@@H]1c1ccc(-c2ccc(C#N)s2)cc1
[2] CCOCCCNC(=O)C1CCN(c2nnc3c(Cl)cccn23)CC1
Which of the two items, 1 and 2 , has the greater recorded RP-LC retention time? Output the label that corresponds to your choice.
1
(1: 958 s, 2: 610 s)

###

experiment: gradient 5% acetonitrile 3 min, to 50% in 2 min, to 85% in 15 min, held 3 min, 100 µL/min; settings: column: Zorbax Extend-C18 2.1 x 50 mm; eluents: water / acetonitrile, 0.1% formic acid
assay_endpoint: RP-LC retention time (s)

Value lookup for RP-LC retention time; key = Cc1noc(C)c1CC(=O)N1CCCn2ccnc2C1C1CCCC1 (stereo not given)
595

[I] Cc1cc(S(=O)(=O)N2CC=C(c3cn(C)c4ncccc34)CC2)ccc1F
[II] O=C(NCC1CC1)c1c(OCC2CC2)cc(=O)n2c1CCCCC2
Which of the two items, I and II , has the greater recorded RP-LC retention time? Output the label that corresponds to your choice.
I

[P] O=C(NOCC1CC1)c1ccc(F)c(F)c1Nc1ccc(I)cc1Cl
[Q] O=C(NCCCN1CCOCC1)c1c2c(nc3ccccc13)C(=O)N(C1CCCCC1)C2
Could you determine which record has the numerically smaller RP-LC retention time? Candidates: P and Q Output the label that corresponds to your choice.
Q
(Q: 598 s, P: 1150 s)

###

test: gradient 5% acetonitrile 3 min, to 50% in 2 min, to 85% in 15 min, held 3 min, 100 µL/min; conditions: column: Zorbax Extend-C18 2.1 x 50 mm; eluents: water / acetonitrile, 0.1% formic acid
assay_endpoint: RP-LC retention time (s)

Value lookup for RP-LC retention time; key = O=C(Cn1cnc(-c2noc(-c3ccncc3)n2)c1)NCc1ccc(Cl)cc1
695

Value lookup for RP-LC retention time; key = COc1ccc(N2CCN(Cc3nc4nc(C)cc(N5CCCCC5)n4n3)CC2)cc1
660

Value lookup for RP-LC retention time; key = CC1=NS(=O)(=O)N(C)C=C1C(=O)OCc1nc(-c2cccc(C)c2)no1
1020

Value lookup for RP-LC retention time; key = Cc1sc2ncnc(N3CCCC(C)C3)c2c1C(=O)Nc1cc(F)ccc1F (centres undefined)
1220

Value lookup for RP-LC retention time; key = COC(=O)CCC(=O)Nc1nc(-c2ccccc2)cs1
840

[P] Cc1c(C(=O)N2CCN(C)CC2)cnn1-c1ccc(-c2nc(C3CC3)no2)cn1
[Q] Cc1cc(F)ccc1NC(=O)c1cc(C(C)C)n2nccc2n1
Which of the two items, P and Q , has the greater recorded RP-LC retention time? Output the label that corresponds to your choice.
Q

Data credit: the METLIN SMRT retention time set (Domingo-Almenara et al. 2019)
